The binders listed here are annotated with their kon.
tested_target: T1, CD40hfc (R&Dsystems, USA) (UniProt P25942 21-193)
T1 construct: Bought reagent; also called immobilized CD40 receptor; target; not shown: Fc part ('hfc') of the bought fusion
T1 sequence (P25942 21-193 limits assumed): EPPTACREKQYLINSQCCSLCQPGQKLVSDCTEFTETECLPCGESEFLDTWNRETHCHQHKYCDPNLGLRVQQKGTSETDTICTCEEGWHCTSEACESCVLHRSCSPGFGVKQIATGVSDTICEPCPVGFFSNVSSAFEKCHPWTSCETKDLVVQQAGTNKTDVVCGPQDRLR
test_description: SPR (Biacore 3000), CD40hfc amine-coupled on chip, antibody as analyte, 37 C, pH 7.3
Experimental: The affinity measures of purified antibodies by surface plasmon resonance using the Biacore 3000 instrument was performed according to manufacturer's protocols. The CD40hfc (R&Dsystems, USA) was immobilized to the BIAcore sensorchip, CMS, using conventional amine coupling. The anti-CD40 antibodies of the invention, (serially diluted 1/3 from 1-0.012 nM) were analysed for binding in HBS-P (GE, BR-1003-68) at a flow rate of 30 μl/min at 37° C. and pH 7.3. […]
Answer format: numeric, M⁻¹ s⁻¹ implied, no suffix.

Solved cases (2 shown):
• Antibody clone B9 (antibody, human IgG1, lambda, V domains shown) VH: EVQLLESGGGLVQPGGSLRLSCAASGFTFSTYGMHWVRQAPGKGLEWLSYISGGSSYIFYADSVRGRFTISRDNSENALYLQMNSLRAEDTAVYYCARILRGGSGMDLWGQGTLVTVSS VL: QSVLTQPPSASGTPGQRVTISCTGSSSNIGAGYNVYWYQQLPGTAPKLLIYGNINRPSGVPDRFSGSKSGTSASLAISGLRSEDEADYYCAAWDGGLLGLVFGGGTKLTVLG = 8.5e+06
• Antibody clone A4 (antibody, human IgG1, lambda, V domains shown, Tested as purified antibody; full chains are assembled here from VH/VL plus these; also called A4 ANTI-CD40 ANTIBODY) VH: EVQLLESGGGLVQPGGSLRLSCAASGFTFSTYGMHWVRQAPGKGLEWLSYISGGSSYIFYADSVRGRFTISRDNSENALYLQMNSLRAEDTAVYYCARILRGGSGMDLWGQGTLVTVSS VL: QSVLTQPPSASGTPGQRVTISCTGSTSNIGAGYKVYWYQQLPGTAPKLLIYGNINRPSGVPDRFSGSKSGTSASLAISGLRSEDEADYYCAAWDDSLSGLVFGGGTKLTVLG = 7.3e+06

What kon value was documented for this binder, Antibody clone H11 (antibody, human IgG1, lambda, V domains shown, also called H11 ANTI-CD40 ANTIBODY) VH: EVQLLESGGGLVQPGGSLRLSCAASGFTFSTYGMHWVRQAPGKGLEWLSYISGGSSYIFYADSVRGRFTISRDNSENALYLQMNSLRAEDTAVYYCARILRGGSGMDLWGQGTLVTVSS VL: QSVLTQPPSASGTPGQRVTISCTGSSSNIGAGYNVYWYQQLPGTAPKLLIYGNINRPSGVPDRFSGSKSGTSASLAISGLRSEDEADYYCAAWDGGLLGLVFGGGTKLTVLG ?
8.5e+06
